Measured HRG-induced Akt activation (log2) accompanies every entry in the list below.
Test system: MCF7
Assay: HRG-induced Akt activation (dPAkt = log2 pAkt/Akt HRG-stimulated minus log2 pAkt/Akt basal) (log2 ratio difference); higher = stronger HRG-induced Akt(T308) phosphorylation
Settings: miRNA mimic concentration 10 nM; time after transfection 72 h; heregulin 10 ng/ml; stimulation time 1 h
READOUT NAME: HRG-induced Akt activation (log2)

>  <SEQUENCE INPUT>
CCUGCAGCGACUUGAUGGCUUCC

>  <OBS VALUE>
0.841

$$$$
>  <SEQUENCE INPUT>
CCCCAGGGCGACGCGGCGGG

>  <OBS VALUE>
2.06

$$$$
>  <SEQUENCE INPUT>
UACGUCAUCGUUGUCAUCGUCA

>  <OBS VALUE>
1.21

$$$$
>  <SEQUENCE INPUT>
AAAGGAUUCUGCUGUCGGUCCCACU

>  <OBS VALUE>
1.63

$$$$
>  <SEQUENCE INPUT>
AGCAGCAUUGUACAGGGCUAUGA

>  <OBS VALUE>
1.45

$$$$
>  <SEQUENCE INPUT>
CUCCUACAUAUUAGCAUUAACA

>  <OBS VALUE>
1.12

$$$$
>  <SEQUENCE INPUT>
CACCCGGCUGUGUGCACAUGUGC

>  <OBS VALUE>
1.53

$$$$
>  <SEQUENCE INPUT>
AAACCGUUACCAUUACUGAGUU

>  <OBS VALUE>
1.22

$$$$
>  <SEQUENCE INPUT>
CAAAGUGCUGUUCGUGCAGGUAG

>  <OBS VALUE>
1.46

$$$$
>  <SEQUENCE INPUT>
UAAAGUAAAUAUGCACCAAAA

>  <OBS VALUE>
1.45

$$$$
>  <SEQUENCE INPUT>
UCACAGUGAACCGGUCUCUUU

>  <OBS VALUE>
1.04

$$$$
>  <SEQUENCE INPUT>
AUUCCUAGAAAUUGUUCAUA

>  <OBS VALUE>
1.18

$$$$
>  <SEQUENCE INPUT>
AAAAUGGUGCCCUAGUGACUACA

>  <OBS VALUE>
1.9

$$$$
>  <SEQUENCE INPUT>
GUAGAUUCUCCUUCUAUGAGUA

>  <OBS VALUE>
1.35

$$$$
>  <SEQUENCE INPUT>
AGAAUUGUGGCUGGACAUCUGU

>  <OBS VALUE>
1.55

$$$$
>  <SEQUENCE INPUT>
UUCACAGGGAGGUGUCAU

>  <OBS VALUE>
1.82

$$$$
>  <SEQUENCE INPUT>
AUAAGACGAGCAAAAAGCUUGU

>  <OBS VALUE>
1.73

$$$$
>  <SEQUENCE INPUT>
CAAAGAAUUCUCCUUUUGGGCU

>  <OBS VALUE>
1.74

$$$$
>  <SEQUENCE INPUT>
UGAGGUAGUAGUUUGUGCUGUU

>  <OBS VALUE>
1.12

$$$$
>  <SEQUENCE INPUT>
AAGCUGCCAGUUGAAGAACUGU

>  <OBS VALUE>
1.23

$$$$
>  <SEQUENCE INPUT>
CUGGUUUCACAUGGUGGCUUAG

>  <OBS VALUE>
2.33

$$$$
>  <SEQUENCE INPUT>
UACUGCAUCAGGAACUGAUUGGA

>  <OBS VALUE>
0.878

$$$$
>  <SEQUENCE INPUT>
ACCGUGCAAAGGUAGCAUA

>  <OBS VALUE>
1.89

$$$$
